species: Rattus norvegicus; experiment: Percentage of residual insulin secretion value in the pancreatic islets of rat after treatment with the compound at 10 uM concentration; assay type: functional
Sorting guide: entries reporting Residual secretion beneath 90% go in the TRUE pile, the rest go in the FALSE pile.

Compound: CC1(C)CC(NC(=S)NCc2ccccc2)c2cc(Cl)ccc2O1 (stereo not given)
Qualitative Label: TRUE
//
Compound: CC(=O)NC1CC(C)(C)Oc2ccc(F)cc21 (stereo not given)
Qualitative Label: TRUE
//
Compound: CCNC(=S)NC1CC(C)(C)Oc2ccc(F)cc21 (stereo not given)
Qualitative Label: TRUE
//
Compound: CC1(C)CC(NC(=O)NCc2ccccc2)c2cc(F)ccc2O1 (stereo not given)
Qualitative Label: TRUE
//
Compound: CC1(C)CC(NC(=S)NCc2ccccc2)c2cc(F)ccc2O1 (stereo not given)
Qualitative Label: TRUE
//
Compound: Cc1ccc(S(=O)(=O)NC(=O)NC2CC(C)(C)Oc3ccc(Cl)cc32)cc1 (stereo not given)
Qualitative Label: FALSE
//
Compound: CCNC(=S)NC1CC(C)(C)Oc2ccc(Br)cc21 (stereo not given)
Qualitative Label: TRUE
//
Compound: CC(C)NC(=S)NC1CC(C)(C)Oc2ccc(Cl)cc21 (stereo not given)
Qualitative Label: TRUE
//
Compound: CC(C)NC(=O)NC1CC(C)(C)Oc2ccc(F)cc21 (stereo not given)
Qualitative Label: FALSE
//
Compound: CC1(C)Oc2ccc(C#N)cc2C(N2CCCC2=O)C1O (stereo not given) [CROMAKALIM]
Qualitative Label: FALSE

# input Below 90% on Residual secretion? Entry CC(=O)NC1CC(C)(C)Oc2ccc(Cl)cc21 (stereo not given)
# output FALSE

# input Now consider CC(C)NC(=O)NC1CC(C)(C)Oc2ccc(Br)cc21 (stereo not given) and answer again.
# output TRUE

# input Same again, this time with CC(C)NC(=O)NC1CC(C)(C)Oc2ccc(Cl)cc21 (stereo not given)
# output TRUE

# input How about CCNC(=S)NC1CC(C)(C)Oc2ccc(Cl)cc21 (stereo not given) ?
# output FALSE

# input Item: CC1(C)CC(NC(=O)NCc2ccccc2)c2cc(Cl)ccc2O1 (stereo not given)
# output TRUE

# input Then what about the compound CC(C)NC(=S)NC1CC(C)(C)Oc2ccc(Br)cc21 (stereo not given) ?
# output TRUE

# input Another compound: CCOC(=O)NC1CC(C)(C)Oc2ccc(F)cc21 (stereo not given)
# output FALSE

# input Proceed to CCOC(=O)NC1CC(C)(C)Oc2ccc(Cl)cc21 (stereo not given)
# output TRUE

# input Again, but for CC1(C)CC(NC(=S)NCc2ccccc2)c2cc(Br)ccc2O1 (stereo not given)
# output TRUE

# input Now the compound CC(=O)NC1CC(C)(C)Oc2ccc(Br)cc21 (stereo not given)
# output FALSE

# input Also check CC1(C)CC(NC(=O)NCc2ccccc2)c2cc(Br)ccc2O1 (stereo not given)
# output TRUE

###

species: Rattus norvegicus; experiment: Myorelaxant effect of the compound on 80 mM KCl induced rat aorta rings determined; (activity expressed as ED50); assay type: functional; settings: read-out: ED50 (the source's name)
Recorded Metric: EC50

# input Recorded EC50 for CC1(C)Oc2ccc(C#N)cc2C(N2CCCC2=O)C1O (stereo unspecified) [CROMAKALIM] , please?
# output > 300 µM
